# Tested on: HCC 2998
# method.summary: NCI tumour cell line growth inhibition, 48 h
Activity calls are given as the source filed them. No stated cut-off is given here; in the data, active = GI50 up to about 1.1 µM and inactive = higher.
Use one of these outcomes when replying: label 1 (active), label 0 (inactive)

INPUT: Query: recorded result category for CC(C)c1cc2c(c(O)c1O)[C@@]1(C)CCCC(C)(C)C1=C(O)C2 in this test
OUTPUT: label 1

INPUT: Hey, what did the test say about Cn1ccc(C(=O)N2CCSC2=S)c(OCc2ccccc2)c1=O ?
OUTPUT: label 0

INPUT: Dear colleague, could you share the recorded outcome for CCCCCC(=O)OCC(=O)[C@H]1[C@H](C)C[C@H]2[C@@H]3C[C@H](F)C4=C/C(=N/OC(=O)c5cccc6c(=O)c7ccccc7[nH]c56)C=C[C@]4(C)[C@H]3[C@@H](O)C[C@@]21C when you have a moment?
OUTPUT: label 0

INPUT: Status in this test for C/C(=N\NC(=S)N1CCCCC1)c1nc2cccnc2[nH]1 ?
OUTPUT: label 0

INPUT: In this assay, the call recorded for O=C(C(=O)c1cc2ccccc2[nH]1)c1cc2ccccc2[nH]1 was what?
OUTPUT: label 0

INPUT: Hi, sorry to bother you, what did the test record for CS(=O)(=O)OCC(CCl)(CCl)CCl ?
OUTPUT: label 0

INPUT: What outcome does the record of this test show for COc1cc2c(cc1OC)CC(=O)Nc1cc(OC)c(OC)cc1CC2 ?
OUTPUT: label 0

INPUT: Called result for CC(=O)Nc1ccc(S(=O)(=O)N/N=C/CN2C(=O)c3ccccc3C2=O)cc1
OUTPUT: label 0

INPUT: What is the recorded call for this compound in the test? CCOc1ccc(NC(=O)C2=C(C)NC(C)=C(C(=O)Nc3ccc(OCC)cc3)C2c2ccc(O)c(OC)c2)cc1
OUTPUT: label 0

INPUT: Hi, do you know how COc1ccc(-c2cc(Cc3cccs3)c(=O)[nH]n2)cc1 came out in this test?
OUTPUT: label 0

INPUT: Which result was noted for this compound in the test: O=C1CC(=O)NC(NN2C(=O)/C(=C/c3ccc(Cl)cc3)N=C2c2ccccc2)=N1
OUTPUT: label 0

INPUT: For this compound, state the assay outcome: O=c1c(C(c2ccc3ccccc3c2)c2c(O)oc3cc(O)ccc3c2=O)c(O)oc2cc(O)ccc12
OUTPUT: label 0

INPUT: Hello, I am checking results. What call was entered for CCOC1CN=C(Nc2cccc3ccccc23)S1 (configuration not stated) ?
OUTPUT: label 0

INPUT: Just curious, what result did CCOc1ccc(NC(=O)/C(Cc2nc3ccccc3nc2O)=N\O)cc1 get here?
OUTPUT: label 0

INPUT: Dear all, I need the recorded test outcome for CCNC(=O)C#CC(=O)NCC , thank you.
OUTPUT: label 0

INPUT: Which result was noted for this compound in the test: CCCCCCCCCCCCCCCCCc1cccc(OCOCCOC)c1CO
OUTPUT: label 0

INPUT: Test call for this compound, please: CC1=NN(C(=O)Nc2ccc(Cl)cc2)C(=O)C2CCC(=O)N12 (configuration not stated)
OUTPUT: label 0

INPUT: Short answer needed: outcome of this test for COC(=O)c1ccc(OCc2ccc3oc(=O)c(-c4ccccc4)nc3c2)cc1 ?
OUTPUT: label 0

INPUT: Look up the recorded call for Nc1c(C(=O)Nc2ccccc2)[n+]([O-])c2ccccc2[n+]1[O-] in this test.
OUTPUT: label 0

INPUT: Look up the recorded call for O=C(O)CCc1ccc(-c2ccccc2)[nH]1 in this test.
OUTPUT: label 0

INPUT: Tell me the recorded outcome of this test for CCc1c[n+]2c(cc1C1=CN3c4ccccc4[C@]45CCN6C/C(=C/CO)[C@H](C[C@H]64)[C@@H]([C@@H]1O)[C@H]35)-c1[nH]c3ccccc3c1CC2 .
OUTPUT: label 0

INPUT: # lookup: test call for Cc1nc(O)nc2nc3ccc(Cl)cc3c(NC(C)(CO)CO)c12
OUTPUT: label 0

INPUT: Entry O=C(O)COc1cc(-c2ccccc2)nc2cc(F)ccc12 : call = ?
OUTPUT: label 0

INPUT: Could you please tell me the result logged for BrC1(c2ccccc2)C[n+]2c(-c3ccccc3)cc(-c3ccccc3)cc2-c2ccccc21 (configuration not stated) in this assay?
OUTPUT: label 1

INPUT: Returns: the outcome recorded for N#CCCN(CCC#N)c1ccc(C(=N/c2ccc(F)cc2)/N=N/c2ccccc2)cc1 in this assay.
OUTPUT: label 0

INPUT: Given CC(C)(C)[Si](C)(C)OCC1CCC(n2cnc3c(NC(=O)c4ccccc4)ncnc32)O1 (configuration not stated) , state the outcome it received in this test.
OUTPUT: label 0

INPUT: Short answer needed: outcome of this test for O=C(NCCC(F)(F)C(F)(F)C(F)(F)C(F)(F)F)NC1OC(CO)C(O)C(O)C1O (configuration not stated) ?
OUTPUT: label 0

INPUT: Which outcome did this test record for the compound Cc1ccc(CCNC(=S)SCC(NC(=O)CCC(N)C(=O)O)C(=O)NCC(=O)O)cc1 (configuration not stated) ?
OUTPUT: label 0

INPUT: Hey, what did the test say about CCN(CC)CC(C(=O)Nc1c(C)cccc1C)/C(C)=N\NC(=O)C[N+](C)(C)C (configuration not stated) ?
OUTPUT: label 0

INPUT: I'd appreciate the recorded outcome for CCCCCCCCCCOc1ccc(/N=N/c2nnc(-c3ccc(OCCCCC)cc3)s2)cc1 from this test.
OUTPUT: label 0

INPUT: Please share the test call associated with Brc1cccc(/C=N/C23CC4CC(CC(C4)C2)C3)c1 .
OUTPUT: label 0

INPUT: State the result this test recorded for CC(=O)O[C@H]1CC[C@@]2(C)C(=C[C@H](c3ccc(O)cc3)[C@H]3[C@@H]4CC[C@H](OC(C)=O)[C@@]4(C)CC[C@@H]32)C1 .
OUTPUT: label 0
